Data provenance: patent US20260132129A1

target: PI3Kα H1047R (T47D cells) (Homo sapiens, UniProt P42336, H1047R); construct: endogenous in cells; host or cells: T47D cells; test: PI3Kα cellular assay: pAKT HTRF in T47D cells after EGF stimulation; assay type: cell-based; details: selectivity T47D (H1047R) over SKBR3 (WT), pAKT HTRF
Sequence (P42336 whole entry H1047R): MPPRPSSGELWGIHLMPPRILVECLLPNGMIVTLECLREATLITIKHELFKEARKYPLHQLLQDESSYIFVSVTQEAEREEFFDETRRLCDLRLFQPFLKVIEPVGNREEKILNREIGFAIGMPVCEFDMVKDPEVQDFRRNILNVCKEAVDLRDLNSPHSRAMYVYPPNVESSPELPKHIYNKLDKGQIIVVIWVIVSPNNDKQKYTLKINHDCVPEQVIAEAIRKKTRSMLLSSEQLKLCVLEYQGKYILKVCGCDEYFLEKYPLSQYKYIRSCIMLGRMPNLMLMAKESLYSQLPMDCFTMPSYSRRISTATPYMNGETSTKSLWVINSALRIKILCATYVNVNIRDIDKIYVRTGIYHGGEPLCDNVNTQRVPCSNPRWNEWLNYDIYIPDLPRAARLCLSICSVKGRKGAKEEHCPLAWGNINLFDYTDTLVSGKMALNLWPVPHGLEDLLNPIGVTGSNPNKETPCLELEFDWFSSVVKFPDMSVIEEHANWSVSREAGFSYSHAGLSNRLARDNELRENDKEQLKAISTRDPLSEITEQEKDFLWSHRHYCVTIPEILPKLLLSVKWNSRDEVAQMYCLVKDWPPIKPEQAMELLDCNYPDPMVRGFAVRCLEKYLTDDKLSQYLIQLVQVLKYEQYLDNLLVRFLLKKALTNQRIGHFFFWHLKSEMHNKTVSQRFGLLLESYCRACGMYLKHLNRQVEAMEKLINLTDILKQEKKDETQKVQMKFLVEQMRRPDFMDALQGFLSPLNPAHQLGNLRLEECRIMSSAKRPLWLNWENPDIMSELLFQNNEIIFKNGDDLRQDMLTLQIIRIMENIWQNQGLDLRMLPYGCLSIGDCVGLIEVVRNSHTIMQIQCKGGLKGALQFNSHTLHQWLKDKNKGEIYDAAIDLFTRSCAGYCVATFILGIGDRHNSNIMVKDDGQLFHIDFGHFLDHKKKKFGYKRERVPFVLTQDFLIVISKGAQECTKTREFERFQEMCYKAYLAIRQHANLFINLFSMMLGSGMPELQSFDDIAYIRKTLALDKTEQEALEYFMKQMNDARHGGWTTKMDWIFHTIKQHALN
Sequence (P27986 whole entry partner): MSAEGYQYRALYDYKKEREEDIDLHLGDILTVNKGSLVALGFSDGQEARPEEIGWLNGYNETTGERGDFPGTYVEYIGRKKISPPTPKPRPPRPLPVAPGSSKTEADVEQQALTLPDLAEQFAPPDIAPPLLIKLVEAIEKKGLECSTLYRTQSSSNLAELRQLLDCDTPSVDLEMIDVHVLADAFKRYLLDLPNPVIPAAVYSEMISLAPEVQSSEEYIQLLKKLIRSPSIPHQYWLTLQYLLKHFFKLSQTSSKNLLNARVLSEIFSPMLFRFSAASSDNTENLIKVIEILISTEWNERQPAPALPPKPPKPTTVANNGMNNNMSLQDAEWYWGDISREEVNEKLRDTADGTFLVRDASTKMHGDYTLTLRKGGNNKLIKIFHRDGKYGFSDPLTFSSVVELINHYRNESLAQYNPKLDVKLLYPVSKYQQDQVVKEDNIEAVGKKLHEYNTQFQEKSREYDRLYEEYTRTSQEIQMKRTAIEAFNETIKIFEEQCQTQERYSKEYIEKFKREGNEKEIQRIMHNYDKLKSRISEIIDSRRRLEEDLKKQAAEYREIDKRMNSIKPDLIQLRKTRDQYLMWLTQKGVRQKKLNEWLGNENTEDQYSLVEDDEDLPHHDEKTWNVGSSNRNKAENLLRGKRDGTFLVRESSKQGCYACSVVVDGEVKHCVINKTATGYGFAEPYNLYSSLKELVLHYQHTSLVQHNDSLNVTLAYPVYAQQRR
QUANTITY: T47D pAKT S473 HTRF IC50 (H1047R): T47D (H1047R) selectivity over SKBR3 (WT)

Worked examples, 5 compounds total:
{"columns": ["COMPOUND", "MEASUREMENT"],
 "data": [
  ["Cc1cc(C(C)Nc2ccccc2C(=O)O)c2nc(N3CCC4(CC3)CNC4=O)cc(=O)n2c1 (stereo not shown)", "C (C denotes ≤5-fold)"],
  ["Cc1cc([C@H](C)Nc2ccccc2C(=O)O)c2nc(N3Cc4ccccc4C3)c(C#N)c(=O)n2c1", "A (A denotes >20-fold)"],
  ["Cc1cc(C(C)Nc2cccnc2C(=O)O)c2nc(-c3ccnc(C4CC4)c3)c(C)c(=O)n2c1 (stereo not shown)", "A (A denotes >20-fold)"],
  ["Cc1cc([C@@H](C)Nc2ccccc2S(N)(=O)=O)c2nc(-c3cccc(C(F)F)c3)c(C)c(=O)n2c1", "A (A denotes >20-fold)"],
  ["Cc1cc(C(C)Nc2ccccc2C(=O)O)c2nc(C3CCN(CC(N)=O)CC3)cc(=O)n2c1 (stereo not shown)", "C (C denotes ≤5-fold)"]
]}

Now consider the entry below.
Name the recorded T47D pAKT S473 HTRF IC50 (H1047R): T47D (H1047R) selectivity over SKBR3 (WT) of the item Cc1cc([C@H](C)Nc2ccccc2S(N)(=O)=O)c2nc(N3Cc4ccccc4C3)cc(=O)n2c1 (single isomer, unassigned) in your answer.
C (C denotes ≤5-fold)

* * *

Here the recorded IC50 is given for each entry.
target: PI3Kα H1047R (T47D cells) (Homo sapiens, UniProt P42336, H1047R); construct: endogenous in cells; host or cells: T47D cells; experiment: PI3Kα cellular assay: pAKT HTRF in T47D cells after EGF stimulation; type: cell-based; conditions: T47D cells (PI3Kα H1047R), pAKT S473 HTRF, EGF stimulation

Worked examples, 3 compounds total:
{"columns": ["COMPOUND", "TARGET SYSTEM", "IC50"],
 "data": [
  ["Cc1cc([C@@H](C)Nc2ccccc2S(N)(=O)=O)c2nc(-c3cccc(C#N)c3)c(C)c(=O)n2c1", "PI3Kα H1047R (T47D cells) (Homo sapiens, UniProt P42336, H1047R)", "< 100 nM"],
  ["Cc1cc(C(C)Nc2ccccc2C(=O)O)c2nc(-c3ccc4c(c(N)nn4C)c3C)c(C)c(=O)n2c1 (stereo not shown) [Compound 706]", "PI3Kα H1047R (T47D cells) (Homo sapiens, UniProt P42336, H1047R)", "500 to 2000 nM"],
  ["CCc1ccn2c(=O)c(C)c(-c3cccc(F)c3)nc2c1[C@H](C)Nc1ccccc1C(=O)O", "PI3Kα H1047R (T47D cells) (Homo sapiens, UniProt P42336, H1047R)", "< 100 nM"]
]}

Name the recorded IC50 of the item Cc1cc([C@H](C)Nc2cccc3c2OCC(=O)N3)c2nc(N3CCOCC3)cc(=O)n2c1 in your answer.
> 2000 nM
